B1: glmS ribozyme (parent)
chain: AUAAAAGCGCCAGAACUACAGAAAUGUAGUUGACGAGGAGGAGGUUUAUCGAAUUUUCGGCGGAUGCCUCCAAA

# Variants of: B1
# PROTOCOL: self-cleavage kobs at 2500 uM GlcN6P; higher = faster cleavage; RNA array
# PROTOCOL CONDITIONS: with glucosamine-6-phosphate
Fewer inactive variants are shown than the library holds.
Would you mind telling me the reported self-cleavage kobs at 2500 uM GlcN6P of each entry?

## Task If you can, please state the reported self-cleavage kobs at 2500 uM GlcN6P value of G29C G44A G60A A64G .
## Result < 1e-05 s⁻¹

## Task Which self-cleavage kobs at 2500 uM GlcN6P is listed for C8A A15G ?
## Result < 1e-05 s⁻¹

## Task Returns the measured self-cleavage kobs at 2500 uM GlcN6P for the input variant. Input: A5U G40C
## Result 0.000574 s⁻¹

## Task Form field: reported self-cleavage kobs at 2500 uM GlcN6P of G9U C16A U30G
## Result < 1e-05 s⁻¹

## Task Could you share which self-cleavage kobs at 2500 uM GlcN6P value was measured for A53C C58A ?
## Result 1.94e-05 s⁻¹

## Task For C50G C58G G66U C68A , what is its reported self-cleavage kobs at 2500 uM GlcN6P?
## Result 0.000368 s⁻¹

## Task Give its self-cleavage kobs at 2500 uM GlcN6P value. Item: A15G G35C
## Result < 1e-05 s⁻¹

## Task // lookup self-cleavage kobs at 2500 uM GlcN6P for A6U G13C
## Result < 1e-05 s⁻¹

## Task Suppose we examine the variant C11G A48G C71U ; what self-cleavage kobs at 2500 uM GlcN6P value has been reported?
## Result < 1e-05 s⁻¹

## Task Looking for the measured self-cleavage kobs at 2500 uM GlcN6P of C8G A15U U47G , can you help?
## Result < 1e-05 s⁻¹

## Task Param item = A6G G7C C10U G35U G40U G60A C70G ; retrieve measured self-cleavage kobs at 2500 uM GlcN6P.
## Result < 1e-05 s⁻¹

## Task Looking for the measured self-cleavage kobs at 2500 uM GlcN6P of C34U U57C , can you help?
## Result < 1e-05 s⁻¹

## Task Consider the variant shown here: C50G G63A C70G What is its recorded self-cleavage kobs at 2500 uM GlcN6P?
## Result 9.35e-05 s⁻¹

## Task Looking for the measured self-cleavage kobs at 2500 uM GlcN6P of C8A G66C , can you help?
## Result < 1e-05 s⁻¹

## Task # query: self-cleavage kobs at 2500 uM GlcN6P of entry G9C A15U G43U
## Result < 1e-05 s⁻¹

## Task self-cleavage kobs at 2500 uM GlcN6P lookup needed for G41A A53C U54C G60C G63U , thanks.
## Result < 1e-05 s⁻¹

## Task # self-cleavage kobs at 2500 uM GlcN6P lookup, item A6C A36G C50U C67U
## Result < 1e-05 s⁻¹

## Task Quick one: self-cleavage kobs at 2500 uM GlcN6P for C8A G13A ?
## Result < 1e-05 s⁻¹

## Task I would be grateful if you could share the reported self-cleavage kobs at 2500 uM GlcN6P for G35U U57G C71A .
## Result < 1e-05 s⁻¹

## Task Entry A15G G43C : reported self-cleavage kobs at 2500 uM GlcN6P = ?
## Result < 1e-05 s⁻¹

## Task What does the data say about its self-cleavage kobs at 2500 uM GlcN6P? Entry: A12C U54G
## Result 0.0102 s⁻¹

## Task self-cleavage kobs at 2500 uM GlcN6P for G7U G38U G66U ?
## Result < 1e-05 s⁻¹

## Task Return reported self-cleavage kobs at 2500 uM GlcN6P; argument: C8U A52G
## Result < 1e-05 s⁻¹

## Task Please give the measured self-cleavage kobs at 2500 uM GlcN6P for this variant: U55A U56C
## Result 0.00258 s⁻¹

## Task Recorded self-cleavage kobs at 2500 uM GlcN6P of U46G C50U A53C A64U , please.
## Result < 1e-05 s⁻¹

## Task For U56A U57A , what is its reported self-cleavage kobs at 2500 uM GlcN6P?
## Result 0.000155 s⁻¹

## Task # query: self-cleavage kobs at 2500 uM GlcN6P of entry C16G G32U G44A G60A
## Result < 1e-05 s⁻¹

## Task Entry U31A A53C : reported self-cleavage kobs at 2500 uM GlcN6P = ?
## Result 0.00162 s⁻¹

## Task For U57C G63A , what is its reported self-cleavage kobs at 2500 uM GlcN6P?
## Result < 1e-05 s⁻¹

## Task Which self-cleavage kobs at 2500 uM GlcN6P value belongs to C16A U47G ?
## Result 0.000184 s⁻¹

## Task Form field: reported self-cleavage kobs at 2500 uM GlcN6P of A14C C58G C67U
## Result 5.98e-05 s⁻¹
